Origin of the recorded values: patent US20260069656A1

# measurement-description: Intact half-life during simulated gastric fluid (SGF) digestion
# measurement-setup: SGF pH 1.5, pepsin:polypeptide 1:20 w/w, 37° C.; produced in E. coli unless otherwise noted
reported-metric: SGF Half-life (t½) (s)
A number alone suffices; assume s.

Query :: Name the recorded SGF Half-life (t½) of the molecule listed here: SEQID-00298 (AN): nutritive polypeptide naturally produced in Cow (protein, listed as Bos taurus) MGLSDGEWQLVLNAWGKVEADVAGHGQEVLIRLFTGHPETLEKFDKFKHLKTEAEMKASEDLKKHGNTVLTALGGILKKKGHHEAEVKHLAESHANKHKIPVKYLEFISDAIIHVLHAKHPSDFGADAQAAMSKALELFRNDMAAQYKVLGFHG
Result :: 18

Query :: Name the recorded SGF Half-life (t½) of the molecule listed here: SEQID-00098: nutritive polypeptide (protein, listed as Lactococcus lactis) MAVFEKVQDIIVDELGKEKEEVTLETSFEELDADSLDLFQIINDIEDEFDVEVDTEADMKTVADLVKYVENNK
Result :: 24

Query :: Name the recorded SGF Half-life (t½) of the molecule listed here: SEQID-00610: protein of the 168 nutritive polypeptide library (protein, listed as Saccharomyces cerevisiae, strain ATCC 204508 / S288c, protein of the 168 nutritive polypeptide library) MVLEATVLVIDNSEYSRNGDFPRTRFEAQIDSVEFIFQAKRNSNPENTVGLISGAGANPRVLSTFTAEFGKILAGLHDTQIEGKLHMATALQIAQLTLKHRQNKVQHQRIVAFVCSPISDSRDELIRLAKTLKKNNVAVDIINFGEIEQNTELLDEFIAAVNNPQEETSHLLTVTPGPRLLYENIASSPIILEEGSSGMGAFGGSGGDSDANGTFMDFGVDPSMDPELAMALRLSMEEEQQRQERLRQQQQQQDQPEQSEQPEQHQDK
Result :: 24

Query :: Name the recorded SGF Half-life (t½) of the molecule listed here: SEQID-00305: nutritive polypeptide (protein, listed as Bos taurus) MPHQYPALTPEQKKELCDIAHRIVAPGKGILAADESTGSIAKRLQSIGTENTEENRRFYRQLLLTADDRVNPCIGGVILFHETLYQKADDGRPFPQVIKAKGGVVGIKVDKGVVPLAGTNGETTTQGLDGLSERCAQYKKDGADFAKWRCVLKIGEHTPSSLAIMENANVLARYASICQQNGIVPIVEPEILPDGDHDLKRCQYVTEKVLAAVYKALSDHHIYLEGTLLKPNMVTPGHACTQKYSHEEIAMATVTALRRTVPPAVPGITFLSGGQSEEEASINLNAINKCPLLKPWALTFSYGRALQASALKAWGGKKENLKAAQEEYVKRALANSLACQGKYTPSGKAGAAASESLFISNHAY
Result :: 12

Query :: Name the recorded SGF Half-life (t½) of the molecule listed here: SEQID-00226: nutritive polypeptide (protein, listed as Bos taurus) QLQALQAQLTDTKKKVDDDLGTIENLEEAKKKLLKDVEVLSQRLEEKALAYDKLEKTKTRLQQELDDLLVDLDHQRQIVSNLEKKQKKFDQLLAEEKNIS
Result :: 42

Query :: Name the recorded SGF Half-life (t½) of the molecule listed here: SEQID-00606: protein of the 168 nutritive polypeptide library (protein, Glycine max, protein of the 168 nutritive polypeptide library) MASEGDHHHHHHHHQDHDHHHHDHDHHHHHDGEGETNSWVGKDGKVYHSHDGLAPHSHEPIYSPGYFTRRAPPLLNRNFNERAFTVGIGGPVGTGKTALMLALCELLRENYSLAAVTNDIFTKEDGEFLVKHKALPEERIRAVETGGCPHAAIREDISINLGPLEELSNLFKADILLCESGGDNLAANFSRELADYIIYIIDVSGGDKIPRKGGPGITQADLLVINKTDLAPAIGADLAVMQRDALRMRDGGPFVFAQVKHKIGVEEIGNLVLQAWEAATGNKRH
Result :: 18

Query :: Name the recorded SGF Half-life (t½) of the molecule listed here: SEQID-00338 (BS): nutritive polypeptide (protein, listed as Saccharomyces cerevisiae, strain ATCC 204508 / S288c) MSSSESIRMVLIGPPGAGKGTQAPNLQERFHAAHLATGDMLRSQIAKGTQLGLEAKKIMDQGGLVSDDIMVNMIKDELTNNPACKNGFILDGFPRTIPQAEKLDQMLKEQGTPLEKAIELKVDDELLVARITGRLIHPASGRSYHKIFNPPKEDMKDDVTGEALVQRSDDNADALKKRLAAYHAQTEPIVDFYKKTGIWAGVDASQPPATVWADILNKLGKD
Result :: 12

Query :: Name the recorded SGF Half-life (t½) of the molecule listed here: SEQID-00220: nutritive polypeptide (protein, listed as Bos taurus) DTKKKVDDDLGTIENLEEAKKKLLKDVEVLSQRLEEKALAYDKLEKTKTRLQQELDDLLVDLDHQ
Result :: 30

Query :: Name the recorded SGF Half-life (t½) of the molecule listed here: SEQID-00236: nutritive polypeptide (protein, listed as Bos taurus) ALQEAHQQTLDDLQAEEDKVNTLTKAKTKLEQQVDDLEGSLEQEKKLRMDLERAKRKLEGDLKLA
Result :: 600

Query :: Name the recorded SGF Half-life (t½) of the molecule listed here: SEQID-00102: nutritive polypeptide (protein, listed as Lactobacillus johnsonii) MTEEEIFNKIADMISERFSIDRDKITKDLNFQNDLDADSIDFVELVMDLEDTFGAEIPDDDAEKLQTVGEAVEYIKSHQN
Result :: 36

Query :: Name the recorded SGF Half-life (t½) of the molecule listed here: SEQID-00345: nutritive polypeptide (protein, Arthrospira platensis NIES-39) MNTLDLQNQRILVTGGAGFLGKQVIDQLLKAGAKSENISVPRSHNCDLRNLEACQQAAKGQDIIIHLAAHVGGIGLNQVKPAELFYDNLMMGTQLIHSAYQAGVKKFVCVGTICAYPKFTPVPFQEDDLWNGYPEETNAPYGIAKKALLVQLQAYRQQYGFNGIYLLPVNLYGPEDNFNPKSSHVIPALVRKVYEAQQRGDKQLPVWGDGSPSREFLYSTDAARGIVMATQHYDEPDPVNLGTNSEVTIRDLVELICELMEFQGEIVWETDKPNGQPRRCLDTNRAKERFGFVAEVEFRQGLKNTIDWYRQNPDL
Result :: 48
